Molecular target: T1, human histidine-rich glycoprotein (HRG), purified from human plasma (human, UniProt P04196 19-525)
T1 construct: also called human purified HRG; human purified HRG protein
T1 sequence: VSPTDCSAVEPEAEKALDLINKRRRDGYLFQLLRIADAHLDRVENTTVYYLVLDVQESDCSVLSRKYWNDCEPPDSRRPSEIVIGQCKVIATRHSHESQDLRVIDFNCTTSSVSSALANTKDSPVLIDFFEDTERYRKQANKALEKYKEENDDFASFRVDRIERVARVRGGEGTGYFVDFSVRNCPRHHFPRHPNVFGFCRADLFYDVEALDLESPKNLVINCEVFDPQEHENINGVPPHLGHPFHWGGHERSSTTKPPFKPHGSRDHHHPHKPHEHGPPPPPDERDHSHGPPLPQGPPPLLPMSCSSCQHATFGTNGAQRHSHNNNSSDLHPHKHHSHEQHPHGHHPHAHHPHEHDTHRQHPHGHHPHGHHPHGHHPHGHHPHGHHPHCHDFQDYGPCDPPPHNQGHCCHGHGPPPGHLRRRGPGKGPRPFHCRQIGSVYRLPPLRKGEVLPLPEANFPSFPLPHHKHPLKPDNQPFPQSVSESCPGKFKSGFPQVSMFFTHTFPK
Experiment: sandwich ELISA, HRG captured by solid phase 40-10G
// reported absorbance at 450 nm (OD450) for each item listed

Some binders with known absorbance at 450 nm (OD450) results, for comparison:
* anti-HRG monoclonal antibody 65-3A (antibody, V domains shown, Mouse hybridoma monoclonal) VH: QVILKESGPGILQPSQTLSLTCSFSGFSLSTSGVGVSWIRQPSGKGLEWLAHIYWDDDKHYNPSLKSRLTISKDTSRNQVFLRITSVDTADTATYYCALGTVGGPWFPYWGQGTLVTVSA VL: DVQMNQSHKFMSTSVGDRVSITCKASQDVSTAVAWYQQKPGQSPKILIYWASIRHTGVPDRFTGSGSGTDYTLTISSVQAEDLTLYYCQQHYSTPWTFGGGTKLEIK | 2 to 3 od
* anti-HRG monoclonal antibody 67-8A-5F (antibody, V domains shown, Mouse hybridoma monoclonal) VH: EVQLQESGPGLVKPSQSLSLTCTVTGYSITSDYAWNWIRQFPGNKLEWMGYISYSGSTSYNPSLKSRISITRDTSKNQFFLQLNSVTTEDTATYYCASASYRYAWFAYWGQGTLVTVSA VL: DIQMTQTTSSLSASLGDRVTISCRASQDISNYLNWYQQKPDGTVKLLIYYTSRLLSGVPSRFSGSGSGTDYSLTISNLEQEDIATYFCQQGNTLPTFGGGTKLEIK | 1 to 2 od
* anti-HRG monoclonal antibody 50-6C-2A (antibody, V domains shown, Mouse hybridoma monoclonal) VH: EVQLQESGPGLVKPSQSLSLTCTVTGYSITSDYAWNWIRQFPGNKLEWMGYISYSGSTNYNPSLKSRISITRDTSKNQFFLQLNSVTTEDTATYYCASASYRYAWFAYWGQGTLVTVST VL: DIQMTQTTSSLSASLGDRVTISCRASQDISNYLNWYQQKPDGTVKLLIYYTSRLHSGVPSRFSGSGSGTDYSLTISNLEQEDIGTYFCQQGNTLPTFGGGTKLEIK | 1 to 2 od
* anti-HRG monoclonal antibody 6-12A-10B-9G (antibody, V domains shown, Mouse hybridoma monoclonal; biotin-labeled as detection antibody and for bead immobilisation) VH: EVQLQESGPGLVKPSQSLSLTCTVTGYSITSDYAWNWIRQFPGNKLEWMGYISYSGSTNYNPSLRSRISITRDTSKNQFFLQLISVTTEDTATYYCGSASYRYAWFAYWGQGTLVTVSA VL: DIQVTQTTSSLSASLGDRVTISCRASQDISNYLNWYQQKPDGTVKLLIYYTSRLHSGVPSRFSGSGSGTDYSLTISNLEQEDIATYFCQQGNTLPTFGGGTKLEIK | 2 to 3 od

Turning now to a further binder:
Query :: Need absorbance at 450 nm (OD450), item anti-HRG monoclonal antibody 69-1A (antibody, V domains shown, Mouse hybridoma monoclonal; also called clone No. 69-1A) VH: EVKLEESGGGLVQPGGSMKLSCAASGFTFSDAWMDWVRQSPEKGLEWVAEIRSKANNHGTYYAESVKGRFTISRDDSKSSVYLRMNSLSAEDTGIYYCTRPFAYWGQGTLVTVSA VL: DVVVTQTPLSLPVSLGDQASISCRSSQSLVHIDGNTYFHWYVQKPGQSPKLLIYKVSNRFSGVPDRFSGSGSGTDFTLKISRVEAEDLGVYFCSQSTHVPLTFGAGTKLELK
Result :: 1 to 2 od
